From: paper PMC7012052

# system-name: CaFADS FMNAT activity (Corynebacterium ammoniagenes, UniProt Q59263)
# Construct: Recombinant CaFADS was overexpressed in BL21 (DE3) E. coli cells and purified as previously described
# Sequence (Q59263 whole entry): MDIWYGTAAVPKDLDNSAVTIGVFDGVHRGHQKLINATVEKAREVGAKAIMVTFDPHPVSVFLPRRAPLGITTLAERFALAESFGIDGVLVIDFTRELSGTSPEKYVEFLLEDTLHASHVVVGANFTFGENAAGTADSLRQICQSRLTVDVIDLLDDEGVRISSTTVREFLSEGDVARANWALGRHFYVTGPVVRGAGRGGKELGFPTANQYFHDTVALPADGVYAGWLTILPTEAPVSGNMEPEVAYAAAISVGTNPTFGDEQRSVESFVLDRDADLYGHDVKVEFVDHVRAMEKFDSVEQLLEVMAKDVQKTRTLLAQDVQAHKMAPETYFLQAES
# test-details: FMNAT activity of CaFADS: residual activity, IC50, inhibition mechanism (HPLC)
pIC50 values, listed per item
Units for pIC50: none; it is -log10 of a concentration expressed in mol/L.

Cc1c(Cl)cccc1Nc1ccccc1C(=O)O | 5.05
CN1CCCN=C1/C=C/c1cccc(O)c1 [HTS hit 19, oxantel pamoate] | 4.68
O=C(O)c1cccnc1Nc1cccc(C(F)(F)F)c1 | 5.05
Cc1cc2c(C(C)C)c(O)c(O)c(C=O)c2c(O)c1-c1c(C)cc2c(C(C)C)c(O)c(O)c(C=O)c2c1O | 6.30

Field: next molecule
Identify the reported pIC50 for the following entry. "COc1cc(-c2ccc(/N=N/c3ccc4c(S(=O)(=O)O)cc(S(=O)(=O)O)c(N)c4c3O)c(OC)c2)ccc1/N=N/c1ccc2c(S(=O)(=O)O)cc(S(=O)(=O)O)c(N)c2c1O"
6.40

###

IC50 values, listed per item
# system-name: SpnFADS FMNAT activity (Streptococcus pneumoniae)
# Sequence (A0A0H2UPY5 entry or part of it): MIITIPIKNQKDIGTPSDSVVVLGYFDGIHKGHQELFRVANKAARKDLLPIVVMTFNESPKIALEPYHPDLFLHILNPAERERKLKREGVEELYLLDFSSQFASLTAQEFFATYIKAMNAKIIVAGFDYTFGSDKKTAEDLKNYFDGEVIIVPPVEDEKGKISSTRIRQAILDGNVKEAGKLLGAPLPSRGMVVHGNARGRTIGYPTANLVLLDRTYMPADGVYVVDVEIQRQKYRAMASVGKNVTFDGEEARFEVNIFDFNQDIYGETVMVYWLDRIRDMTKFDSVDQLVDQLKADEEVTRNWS
# test-details: biochemical
# recorded-conditions: SpnFADS; compounds assayed 0–100 μM; 25 °C; read-out: FMNAT activity IC50
Counter-ions that a name gives are not always drawn.
Respond with the bare value in µM.

CC(C)n1c(/C=C/C(O)CC(O)CC(=O)O)c(-c2ccc(F)cc2)c2ccccc21 (stereo not shown) [HTS hit 37, fluvastatin sodium salt] | 7
COc1cc(-c2ccc(/N=N/c3ccc4c(S(=O)(=O)O)cc(S(=O)(=O)O)c(N)c4c3O)c(OC)c2)ccc1/N=N/c1ccc2c(S(=O)(=O)O)cc(S(=O)(=O)O)c(N)c2c1O [HTS hit 24, Chicago sky blue 6B] | 70

Identify the reported IC50 for the following entry. CCCCCCCCCCCCCCCC[N+](C)(C)CCN(Cc1ccc(OC)cc1)c1ncccn1 [HTS hit 9, thonzonium bromide]
78

###

# system-name: CaFADS FMNAT activity (Corynebacterium ammoniagenes)
# Construct: Recombinant CaFADS was overexpressed in BL21 (DE3) E. coli cells and purified as previously described; made in house; host or cells: E. coli BL21 (DE3)
# test-details: FMNAT activity of CaFADS: residual activity, IC50, inhibition mechanism (HPLC)
# Format: biochemical
# recorded-conditions: read-out: Residual activity (FMNAT)
# Experimental: Then, the RFK and FMNAT reactions were individually assayed in the presence of the HTS hits at 25 °C. […] The transformation of RF into FMN or FAD was evaluated through flavins separation by HPLC, as previously described. […] Experiments were performed and analysed through HPLC as described above. […] All the experiments were carried out in 20 mM PIPES, 10 mM MgCl2, pH 7.0, 2.5% DMSO at 25 °C, being the final reaction volume 500 µl. […] The flavin composition of the supernatant was analysed as previously described. […]
property-label: remaining activity at 50 µM

O=C(O)c1cccnc1Nc1cccc(C(F)(F)F)c1 | 34.6%
CN1CCCN=C1/C=C/c1cccc(O)c1 [HTS hit 19, oxantel pamoate] | 43.3%
COc1cc(-c2ccc(/N=N/c3ccc4c(S(=O)(=O)O)cc(S(=O)(=O)O)c(N)c4c3O)c(OC)c2)ccc1/N=N/c1ccc2c(S(=O)(=O)O)cc(S(=O)(=O)O)c(N)c2c1O | 3.6%
CCc1oc2ccccc2c1C(=O)c1cc(Br)c(O)c(Br)c1 | 33.5%

Identify the reported remaining activity at 50 µM for the following entry. "Cc1c(Nc2ncccc2C(=O)O)cccc1C(F)(F)F"
24.5%

Identify the reported remaining activity at 50 µM for the following entry. "Cc1cc2c(C(C)C)c(O)c(O)c(C=O)c2c(O)c1-c1c(C)cc2c(C(C)C)c(O)c(O)c(C=O)c2c1O"
6.9%

Identify the reported remaining activity at 50 µM for the following entry. "Cc1c(Cl)cccc1Nc1ccccc1C(=O)O"
41.1%

Identify the reported remaining activity at 50 µM for the following entry. "O=C(O)CCc1nc(-c2ccccc2)c(-c2ccccc2)o1"
20.3%
